Cited source for all entries: ChEMBL document CHEMBL2046268

Biological target: Caspase-3 (Homo sapiens) (UniProt P42574)
Sequence (whole entry): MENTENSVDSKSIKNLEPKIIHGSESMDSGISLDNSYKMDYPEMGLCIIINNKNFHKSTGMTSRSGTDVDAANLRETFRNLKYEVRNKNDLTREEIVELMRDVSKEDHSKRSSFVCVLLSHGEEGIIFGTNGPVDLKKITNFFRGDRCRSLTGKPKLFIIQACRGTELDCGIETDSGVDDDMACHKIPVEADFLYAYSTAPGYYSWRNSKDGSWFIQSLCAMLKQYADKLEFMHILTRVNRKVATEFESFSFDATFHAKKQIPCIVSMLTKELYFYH
Assay: Induction of caspase 3 activation in human HeLa cells using Ac-DEVD-pNA after 4 hrs by Bradford assay
Format: cell-based

structure_as_smiles: CC1=C(C)C(=O)O[C@@H]([C@@H](C)[C@H]2CC[C@H]3[C@@H]4C[C@H]5O[C@]56[C@@H](O)C=CC(=O)[C@]6(C)[C@H]4CC[C@]23C)C1
Activity: Dose-dependent effect
--
structure_as_smiles: CC1=C(CO[Si](C)(C)C(C)(C)C)C(=O)O[C@@H]([C@@H](C)[C@H]2CC[C@H]3[C@@H]4C[C@H]5O[C@]56C(=O)C=CC(=O)[C@]6(C)[C@H]4CC[C@]23C)C1
Activity: Dose-dependent effect
--
structure_as_smiles: CC1=C(CO)C(=O)O[C@@H]([C@@H](C)C2=CC[C@H]3[C@@H]4C[C@H]5O[C@]56[C@@H](O)C=CC(=O)[C@]6(C)[C@H]4CC[C@]23C)C1
Activity: Dose-dependent effect

====

tested on: A549; test: Cytotoxicity against human A549 cells assessed as cell viability after 72 hrs by MTT assay; format: functional, cell-based; settings: A549, 72 h
pIC50: −log10 of the molar value.
Quick rule for you: pIC50 at 5 or higher means T, lower means F.

structure_as_smiles: CC1=C(CO)C(=O)O[C@@H]([C@@H](C)[C@H]2CC[C@H]3[C@@H]4C[C@@H](O)[C@@]5(O)[C@@H](O)[C@@H](O)CC(=O)[C@]5(C)[C@H]4CC[C@]23C)C1
target_or_system: A549
label_class: F
--
structure_as_smiles: CC1=C(C)C(=O)O[C@@H]([C@@H](C)[C@H]2CC=C3[C@@H]4C[C@H]5O[C@]56[C@@H](O)C=CC(=O)[C@]6(C)[C@H]4CC[C@@]32C)C1
target_or_system: A549
label_class: T
--
structure_as_smiles: CC(=O)OCC1=C(C)C[C@H]([C@@H](C)[C@H]2CC[C@H]3[C@@H]4C[C@H]5O[C@]56[C@@H](O)[C@@H](O)CC(=O)[C@]6(C)[C@H]4CC[C@]23C)OC1=O
target_or_system: A549
label_class: F
--
structure_as_smiles: CC1=C(CO[Si](C)(C)C(C)(C)C)C(=O)O[C@@H]([C@@H](C)[C@H]2CC[C@H]3[C@@H]4C[C@H]5O[C@]56[C@@H](O)C=CC(=O)[C@]6(C)[C@H]4CC[C@]23C)C1
target_or_system: A549
label_class: T
--
structure_as_smiles: CC1=C(C)C(=O)O[C@@H]([C@@H](C)[C@H]2CC[C@H]3[C@@H]4C[C@@H](O)[C@]5(C=O)CCC(=O)[C@]5(C)[C@H]4CC[C@]23C)C1
target_or_system: A549
label_class: F
--
structure_as_smiles: CC1=C(CO)C(=O)O[C@@H]([C@@H](C)[C@H]2CC[C@H]3[C@@H]4C[C@H]5O[C@]56[C@@H](O)CCC(=O)[C@]6(C)[C@H]4CC[C@]23C)C1
target_or_system: A549
label_class: F
--
structure_as_smiles: CC1=C(CO)C(=O)O[C@@H]([C@@H](C)[C@H]2CC[C@H]3[C@@H]4C[C@@H](O)[C@]5(C=O)C=CC(=O)[C@]5(C)[C@H]4CC[C@]23C)C1
target_or_system: A549
label_class: F
--
structure_as_smiles: CC1=C(CO)C(=O)O[C@@H]([C@@H](C)[C@@]2(O)CC[C@H]3[C@@H]4C[C@H]5O[C@]56[C@@H](O)C=CC(=O)[C@]6(C)[C@H]4CC[C@@]32C)C1
target_or_system: A549
label_class: F
--
structure_as_smiles: CC(=O)OCC1=C(C)C[C@H]([C@@H](C)[C@H]2CC[C@H]3[C@@H]4C[C@H]5O[C@]56[C@@H](O)C=CC(=O)[C@]6(C)[C@H]4CC[C@]23C)OC1=O
target_or_system: A549
label_class: T
